Data origin: PubChem BioAssay (NCI)

- Test system: NCI/ADR-RES ovarian
- assay_remarks: NCI tumour cell line growth inhibition, 48 h
We begin with a simple list: items and their reported TGI.
measurement_name: TGI

                                   molecule    result
0    CCc1cccc(CC)c1NC(=S)NC(=O)c1ccc(Br)cc1  > 100 µM
1  FC(F)(F)c1ccc2c(c1)nc(Cc1ccccc1)n2C[C@@H]1CCCN2CCCCC12 (stereo not given in full)   30.9 µM
2  Oc1ccc(-c2nc3cc(C(F)(F)F)ccc3n2CC2CCCN3CCCCC23)cc1 (stereo not given)   32.9 µM
3    COc1cccc(/C=C/C(=O)c2ccc(Cl)cc2Cl)c1OC   25.2 µM
4                             O=S(=O)(O)CCS  > 100 µM

###

- Tested on: SF-268 CNS
- assay_remarks: NCI tumour cell line growth inhibition, 48 h

compound	tested_system	TGI
N#CCCC(CC#N)N1CCN(CCO)CC1 (stereo unspecified)	SF-268 CNS	> 100 µM
C#CC(O)/C=C/CCCCCCC#CC/C=C\CC#CCCCCCC/C=C/C(O)C#C (stereo unspecified)	SF-268 CNS	10.8 µM
COC(=O)c1ccccc1NC(=O)C(=O)CC(=O)c1ccccc1NC1=CC(=O)C(=O)c2ccccc21	SF-268 CNS	30.3 µM
OC1C(O)C(O)C(O)C(O)C1O (stereo unspecified)	SF-268 CNS	> 1000 µM
Cc1ccc(S(=O)(=O)N2CCSCCSCCN(S(=O)(=O)c3ccc(C)cc3)CCN(S(=O)(=O)c3ccc(C)cc3)CC2)cc1	SF-268 CNS	> 100 µM
CC(=O)NNc1nc(C)c(C(/C=C/c2ccc(Cl)cc2)=N\NS(=O)(=O)c2ccc(C)cc2)s1	SF-268 CNS	> 100 µM
CC[N+](CC)=c1ccc2nc3c(cc(NCc4ccccc4)c4ccccc43)oc-2c1	SF-268 CNS	1.51 µM
O=C1CC(Br)c2c(Cl)sc(Cl)c21 (stereo unspecified)	SF-268 CNS	26.6 µM
C=CC1OC(CCCOC(=O)C(C)(C)C)O[C@@H]1CC (stereo partly specified)	SF-268 CNS	> 100 µM
N=c1c2c3n(c4c(=O)n(-c5ccccc5)c(=S)n(c(=O)n1-c1ccccc1)c24)CCCCC3	SF-268 CNS	> 100 µM
Cc1ccc(/C=C2\NC(=S)N(CN3CCOCC3)C2=O)cc1	SF-268 CNS	> 100 µM
OC(c1cccs1)c1cc2ccccc2s1 (stereo unspecified)	SF-268 CNS	> 10 µM
Cc1ccc(S(=O)(=O)Oc2ccc3c4c(c(=O)oc3c2)CCCCC4)cc1	SF-268 CNS	> 100 µM
CC1CCCC(C(O)CC2CC(=O)N(c3ccccc3)C(=O)C2)C1=O (stereo unspecified)	SF-268 CNS	> 100 µM
COc1ccc(/C=C2\CN(C)CC3=C2OC(N)=C(C#N)C3c2ccc(OC)cc2)cc1 (stereo unspecified)	SF-268 CNS	> 100 µM
O=c1c2cc(Br)ccc2oc2nc3n(c(=O)c12)CCCS3	SF-268 CNS	> 100 µM
COc1ccc(C2NCCc3c2[nH]c2ccccc32)cc1CN1CCN(c2ccc(F)cc2)CC1 (stereo unspecified)	SF-268 CNS	7.82 µM
N#C/C(=C\c1ccc(Br)cc1)n1nnc2cccc(F)c21	SF-268 CNS	3.51 µM
CCCCCCCCCCCCCC/C(C(=O)OC)=C(/O)C(=O)OCC	SF-268 CNS	64.3 µM
COC(=O)[C@]12CC[C@@H](C)[C@H](C)[C@@H]1C1=CC[C@@H]3[C@@]4(C)C(C=O)=C[C@@](C)(COC(C)=O)[C@@H]4[C@H](O)C[C@@]3(C)[C@]1(C)CC2	SF-268 CNS	9.14 µM
COc1cc(-c2oc3c(OC)c(OC)cc(O)c3c(=O)c2OC)ccc1O	SF-268 CNS	> 100 µM
